# method summary: Positive allosteric modulator activity at rat cortical membrane GABA-B receptor incubated for 60 min by [35S]GTPgammaS binding assay
# Format: cell membranes, Cortex
Think of 6 as a floor: if pEC50 stands on it or above, it is 1; beneath it, 0.

>>> df
                                   compound  group_label
0  CSc1c(C)nc2cc(-c3ccc(Cl)cc3)nn2c1N1CCC[C@H](C(=O)O)C1            1
1  COc1c(C)nc2cc(-c3ccc(Cl)cc3)nn2c1N1CCCC(C(=O)O)C1 (racemic)            0
2  CSc1c(C)nc2cc(-c3ccc(Cl)cc3)nn2c1-c1cccc(NC(C)=O)c1            1
3  CSc1c(C)nc2cc(-c3ccc(Cl)cc3)nn2c1N1CCC[C@@H](C(=O)O)C1            1
4  Cc1cc(NC2CCCNC2=O)n2nc(-c3ccc(Cl)cc3)cc2n1 (racemic)            0
5  CC(=O)Nc1cccc(-c2c([S+](C)[O-])c(C)nc3cc(-c4ccc(Cl)cc4)nn23)c1 (stereo not given)            1
6  Cc1cc(N2CCCCC2CCO)n2nc(-c3ccc(Cl)cc3)cc2n1 (racemic)            1
7  COc1nn(-c2ccc(F)c(NC(C)=O)c2)c(=O)n(Cc2ccc(Cl)c(F)c2)c1=O            1
8  Cc1cc(N2CCCCC2CCO)n2nc(-c3ccc(C#N)cc3)cc2n1 (racemic)            0
9  Cc1cc(N2CCOCC2CCO)n2nc(-c3ccc(Cl)cc3)cc2n1 (racemic)            0

---

# method summary: Positive allosteric modulator activity at rat cortical membrane GABA-B receptor incubated for 60 min by [35S]GTPgammaS binding assay
# Assay type: cell membranes, Cortex
Think of 6 as a floor: if pEC50 stands on it or above, it is label 1; beneath it, label 0.

>>> print(df.to_string())
                                    molecule  group_label
 0  COc1ccc(-c2cc3nc(C)cc(N4CCCCC4CCO)n3n2)cc1 (racemic)      label 0
 1  CSc1c(C)nc2cc(-c3ccc(Cl)cc3)nn2c1N1CCCC(C(=O)O)C1 (racemic)      label 1
 2  Cc1nc(N2CCCCC2CCO)n2nc(-c3ccc(Cl)cc3)cc2n1 (racemic)      label 1
 3  Cc1nc2cc(-c3ccc(Cl)cc3)nn2c(N2CCOCC2CCO)c1C#N (racemic)      label 0
 4  Cc1cc(N2CCCCC2CCO)n2nc(-c3cccc(Cl)c3)cc2n1 (racemic)      label 0
 5  CC(=O)Nc1cccc(-c2c(S(C)(=O)=O)c(C)nc3cc(-c4ccc(Cl)cc4)nn23)c1      label 1
 6  CC(C)(C)c1cc(C(C)(C)C)c2c(c1)C(O)(C(F)(F)F)C(=O)O2 (racemic)      label 1
 7  CC(=O)Nc1cccc(-c2cc(C)nc3cc(-c4ccc(Cl)cc4)nn23)c1      label 1
 8  Cc1cc(N2CCCCC2C(N)=O)n2nc(-c3ccc(Cl)cc3)cc2n1 (racemic)      label 1
 9  Cc1cc(N2CCCCC2CCO)n2nc(Cc3ccccc3)cc2n1 (racemic)      label 0
10  Cc1nc(N2CCCCC2CCO)c2nc(-c3ccc(Cl)cc3)cn2n1 (racemic)      label 1
11  Cc1nc(N2CCCCC2CCO)c2sc(-c3ccc(Cl)cc3)cc2n1 (racemic)      label 1
12  COc1c(C)nc2cc(-c3ccc(Cl)cc3)nn2c1N1CCCCC1CCO (racemic)      label 1
13  Cc1cc(N2CCCC(C(=O)O)C2)n2nc(-c3ccc(Cl)cc3)cc2n1 (racemic)      label 0
14  Cc1cc(N2CCCCC2CCO)c2sc(-c3ccc(Cl)cc3)cc2n1 (racemic)      label 1
